- target.under.test: UniProt:O76074
IC50 values for the molecules below.

Consider the worked cases shown below.
# structure.string, IC50
rows = [
    ("CCOc1nc2c(n1Cc1ccc(O)c(Br)c1)C(=O)N(CC)C1=N[C@H](Cc3ccccc3F)CN12", "< 4.1 nM"),
    ("CCN1C(=O)c2c(nc(OC)n2Cc2ccc(O)c(Cl)c2)N2C[C@@H](Cc3ccccc3)N=C12", "< 1.6 nM"),
    ("CCN1C(=O)c2c(nc(Br)n2Cc2ccc(O)c(Br)c2)N2C[C@@H](Cc3ccccc3)N=C12", "< 4.1 nM"),
    ("CCN1C(=O)c2c(nc(OC)n2Cc2ccc(O)cc2)N2C[C@@H](Cc3ccccc3)N=C12", "< 2.5 nM"),
]

Exercise: Form field: IC50 recorded for CCOc1nc2c(n1Cc1ccc(O)c(Cl)c1)C(=O)N(CC)C1=N[C@H](Cc3ccccc3)CN12 with UniProt:O76074 (enter value)
Key: < 1.6 nM

Exercise: Form field: IC50 recorded for CCN1C(=O)c2c(nc(Br)n2Cc2ccc(O)c(Br)c2)N2C[C@@H](Cc3cccc(F)c3)N=C12 with UniProt:O76074 (enter value)
Key: < 4.1 nM

Exercise: Form field: IC50 recorded for CCN1C(=O)c2c(nc(C(N)=O)n2Cc2ccc(O)c(Cl)c2)N2C[C@@H](Cc3ccccc3)N=C12 with UniProt:O76074 (enter value)
Key: < 4.1 nM

Just for reference, patent US6943171B2 is where these values come from.
